Just for reference, ChEMBL document CHEMBL1145608 is where these values come from.

# target of assay: Androgen receptor (Homo sapiens, UniProt P10275)
# Sequence (P10275 whole entry): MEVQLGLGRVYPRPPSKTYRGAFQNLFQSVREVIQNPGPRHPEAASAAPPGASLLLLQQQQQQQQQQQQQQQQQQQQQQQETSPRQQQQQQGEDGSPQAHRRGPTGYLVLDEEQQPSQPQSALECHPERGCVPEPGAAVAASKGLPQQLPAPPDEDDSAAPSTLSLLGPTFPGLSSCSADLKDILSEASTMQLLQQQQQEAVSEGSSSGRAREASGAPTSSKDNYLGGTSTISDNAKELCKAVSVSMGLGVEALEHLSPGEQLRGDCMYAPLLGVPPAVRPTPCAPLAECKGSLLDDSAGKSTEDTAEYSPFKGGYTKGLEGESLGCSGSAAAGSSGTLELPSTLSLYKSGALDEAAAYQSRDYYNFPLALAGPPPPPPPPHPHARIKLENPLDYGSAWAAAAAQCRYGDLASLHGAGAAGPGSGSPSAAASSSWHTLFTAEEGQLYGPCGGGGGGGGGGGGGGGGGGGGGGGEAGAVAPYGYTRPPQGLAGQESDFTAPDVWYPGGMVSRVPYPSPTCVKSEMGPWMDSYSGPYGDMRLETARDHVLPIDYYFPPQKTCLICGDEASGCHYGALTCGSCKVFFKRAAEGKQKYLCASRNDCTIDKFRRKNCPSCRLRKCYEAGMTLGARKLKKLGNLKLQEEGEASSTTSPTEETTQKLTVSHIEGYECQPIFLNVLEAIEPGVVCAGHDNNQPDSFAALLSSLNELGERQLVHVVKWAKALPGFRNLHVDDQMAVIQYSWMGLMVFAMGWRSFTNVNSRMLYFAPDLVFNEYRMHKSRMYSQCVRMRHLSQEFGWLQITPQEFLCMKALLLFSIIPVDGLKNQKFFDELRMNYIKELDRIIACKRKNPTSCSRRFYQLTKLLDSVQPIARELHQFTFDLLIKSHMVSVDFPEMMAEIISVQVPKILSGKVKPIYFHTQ
pKi: −log10 of the molar value.
Rule: pKi of 8 or more gives condition met; anything lower gives condition not met.

compound structure	target of assay	group
CSCC[C@@H]1COc2cc3[nH]c(=O)cc(C(F)(F)F)c3cc2N1CC(F)(F)F	Androgen receptor (Homo sapiens, UniProt P10275)	condition met

Prompt: Could you please find out whether Cc1cccc([C@H]2COc3cc4[nH]c(=O)cc(C(F)(F)F)c4cc3N2CC(F)(F)F)c1 has pKi that meets 8 or exceeds it?
Completion: condition not met
